target-under-test: S. aureus ATCC 29213 FabI (Staphylococcus aureus, UniProt Q6GI75)
Sequence (Q6GI75 1-256): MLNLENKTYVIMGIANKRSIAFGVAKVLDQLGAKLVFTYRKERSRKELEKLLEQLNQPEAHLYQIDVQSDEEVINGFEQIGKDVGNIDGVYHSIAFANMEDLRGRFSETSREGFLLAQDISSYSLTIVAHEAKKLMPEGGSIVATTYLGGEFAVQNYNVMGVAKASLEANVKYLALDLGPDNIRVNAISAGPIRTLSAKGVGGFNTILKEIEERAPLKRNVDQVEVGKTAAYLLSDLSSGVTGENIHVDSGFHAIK
protocol-text: Staphylococcus aureus FabI enzyme inhibition assay
Format: biochemical
experimental-parameters: NADH consumption, 30 minutes, read-out: FabI (300.235) IC50 (converted)
Procedure: Y.1 FabI Enzyme Inhibition: Staphylococcus aureus FabI Enzyme Inhibition Assay FabI enzyme inhibition assays were carried out in half-area, 384-well microtitre plates. […] The reaction mixtures were incubated for 30 minutes at room temperature and the reaction was stopped by adding 200 mM Tris buffer (pH 9.0) to create a pH-shift. The consumption of NADH was monitored by measuring the change in absorbance at 340. […]
metric: IC50

Please review the following examples before continuing.
given-smiles	target-under-test	IC50
COc1ccc(CN2CC(=O)Nc3ncc(/C=C/C(=O)N4CCC=C(c5ccccc5)CC4)cc3C2)cc1	S. aureus ATCC 29213 FabI (Staphylococcus aureus, UniProt Q6GI75)	~2810 nM
O=C1CN(c2ccccc2)Cc2cc(/C=C/C(=O)N3CCC=C(c4ccccc4)CC3)cnc2N1	S. aureus ATCC 29213 FabI (Staphylococcus aureus, UniProt Q6GI75)	~1510 nM
CC(C)(C)C(=O)Nc1ccc(/C=C/C(=O)N2CCC=C(c3ccccc3)CC2)cn1	S. aureus ATCC 29213 FabI (Staphylococcus aureus, UniProt Q6GI75)	2030 nM

Using the record for COc1ccc(F)cc1C1=CCCN(C(=O)/C=C/c2cnc3c(c2)COC(=O)N3)CC1 , report its IC50.
~1020 nM

What measured IC50 goes with CC1(C(=O)Nc2ccc(/C=C/C(=O)N3CCC=C(c4ccccc4)CC3)cn2)CC1 ?
~1070 nM
